Data provenance is PubChem BioAssay AID2013.

The reader will find reported inhibition values listed item by item below.
# TARGET_OR_SYSTEM: G-protein coupled receptor 55 (Homo sapiens) (UniProt Q9Y2T6)
# Sequence (Q9Y2T6 whole entry, looked up): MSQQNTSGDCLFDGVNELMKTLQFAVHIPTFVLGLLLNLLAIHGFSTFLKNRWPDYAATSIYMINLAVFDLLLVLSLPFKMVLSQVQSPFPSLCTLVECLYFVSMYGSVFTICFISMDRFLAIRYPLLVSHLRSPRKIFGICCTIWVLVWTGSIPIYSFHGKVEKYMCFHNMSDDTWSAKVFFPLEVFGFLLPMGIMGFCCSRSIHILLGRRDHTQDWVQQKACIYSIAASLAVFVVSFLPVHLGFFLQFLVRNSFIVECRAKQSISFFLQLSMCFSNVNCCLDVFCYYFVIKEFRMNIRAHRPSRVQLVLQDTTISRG
# PROCEDURE_SUMMARY: GPR55 antagonists blocking LPI-driven arrestin recruitment, primary screen, imaging, U2OS, beta-arrestin-GFP, LPI agonist (AID 2013);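 note: U2OS cells stably carrying GPR55 and arrestin-GFP stimulated by 5 µM LPI near EC80; imaged beta-arrestin-GFP aggregate spots per cell after agonist stimulation; plate controls were LPI-stimulated DMSO wells for no effect and DMSO wells without LPI for full effect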
# MEASUREMENT_CONDITIONS: U2OS GPR55 beta-arrestin-GFP translocation imaging, LPI antagonism; at 10 µM; active compounds read high
In all, about 290,000 compounds went through this assay and about 370 (0.13%) were called active. This excerpt belongs to a sample that is enriched for actives. Results with a measured potency or affinity are listed apart.
MEASURED_ATTRIBUTE: inhibition (%)

INSERT INTO results (compound, measurement) VALUES
  ('CCc1ccc(C(=O)COC(=O)[C@@H](NC(N)=O)[C@@H](C)CC)cc1', 0.9),
  ('OCC[C@@H]1C[C@H](O)[C@@H](O)[C@]2(Cc3ccccc3O2)O1', -2.3),
  ('CC(=O)Oc1ccc(C(=O)Cc2ccccn2)c(O)c1', 1),
  ('COc1ccc(N2CCN(S(=O)(=O)c3ccc(Cl)s3)CC2)cc1', -2),
  ('CNc1oc(C)nc1S(=O)(=O)c1ccccc1', -6.5),
  ('O=c1c2ccccc2nc(-c2ccccc2)n1CCCN1CCOCC1', -6.4),
  ('COc1cccc(NC(=O)C(=O)N/N=C/c2ccc3c(c2)OCO3)c1', 14.8),
  ('Nn1c(SCC(=O)Nc2ccc(F)cc2)nnc1-c1cccnc1', 16.8),
  ('Cc1ccc(NC(=S)N(CCCN2CCOCC2)Cc2cccs2)c(C)c1', 25.2),
  ('CCOc1ccc2oc(C(=O)NCC(C)(C)CN(C)C)c(C)c2c1', 13),
  ('COc1ccc(C(=O)C2CCCN(C(=O)c3noc4c3CCCC4)C2)c(C)c1 (stereo not drawn)', 15.3),
  ('Cc1ccc(-c2nc(-c3nccc4ccccc34)oc2-c2ccccc2)cc1', 25),
  ('O=C1CC(NC(=O)c2ccc(Cl)cc2)C(=O)N1 (stereo not drawn)', 8),
  ('Cc1ccccc1NC(=S)N(CCCN1CCOCC1)Cc1cccs1', 54.6),
  ('COC(=O)C1=C(C)OC(N)=C(C#N)C1c1ccccc1F (stereo not drawn)', 9),
  ('Cc1ccnc2c(N3C(=O)C4C5c6ccccc6C(c6ccccc65)C4C3=O)cccc12 (stereo not drawn)', 13.1),
  ('O=S(=O)(CCC1CCCCN1)c1ccccc1 (stereo not drawn)', 0.5),
  ('COCCNc1c2c(nc3c(-c4ccccc4)c(C)nn13)CCC2', -0.5),
  ('C/C(=C\c1ccccc1)C(=O)NCCCn1ccnc1', 9.4),
  ('N/C(Cc1cccs1)=N\OC(=O)COc1ccc(Cl)cc1Cl', -3.5),
  ('COc1ccc(Br)cc1/C=N/Nc1cccc(C(=O)O)c1', 1),
  ('COc1ccc(-c2cc(C(=O)N3CCN(c4ccccc4O)CC3)c3ccccc3n2)cc1OC', 13.3),
  ('c1ccc(-c2ccc(-c3nccc4ccccc34)[nH]2)cc1', 36);
